System: Alopecurus myosuroides (ALOMY)
experimental-details: Post-emergence biological efficacy, glasshouse pot test
Assay type: in vivo
test-conditions: 312 h, post-emergence, 1,000 g/ha, evaluated after 13 days (100=total damage; 0=no damage), read-out: Percentage damage caused to weed species, ALOMY
assay-endpoint: pest or weed control at 1000 g/ha (%)

{"columns": ["compound-structure", "measured"],
 "data": [
  ["COC(=O)c1nc(C2CC2)nc(NCCc2ccc(S(N)(=O)=O)cc2)c1Cl", 0],
  ["COC(=O)c1nc(C2CC2)nc(NCc2ccncc2)c1Cl", 40],
  ["O=C(O)c1nc(C2CC2)nc(NCc2ccc(F)cc2)c1Cl", 10],
  ["COC(=O)c1nc(C2CC2)nc(NCc2cc(F)c(F)cc2F)c1Cl", 20],
  ["COC(=O)c1nc(C2CC2)nc(NCc2cccc(F)c2)c1Cl", 20]
]}
